The measurements presented in this section are drawn from ChEMBL document CHEMBL4513216.

- System: Plasmodium berghei
- assay text: Screen against P. berghei liver stage (PbLuc), transformed with Luciferase, at 10uM
- Format: functional, HepG2
- condition context: tested at 10 uM
In all, about 69,000 compounds went through this assay and about 8,600 (12%) showed an effect of 50% or more. For the sample, strong results were picked, then their nearest neighbours and some compounds at random.
measure name: INHIBITION (%)
State the answer as a number, implicitly in %.

Fill in: INHIBITION of N#CCSCCCN1CCN(C(=O)c2cccc(Cl)c2)CC1 is ___
10.7

Fill in: INHIBITION of CN(C)C[C@]12COC[C@H]1CN(C(=O)Cc1ccc3c(c1)OCO3)C2 is ___
23.5

Fill in: INHIBITION of CC(=O)N1CCN(CCCSCc2ccccc2)CC1 is ___
-23.5

Fill in: INHIBITION of CCC(C)N(Cc1cc(C)n[nH]1)Cc1ccccc1Cl (configuration not stated) is ___
79

Fill in: INHIBITION of CO[C@@H]1CCN(Cc2ccoc2)[C@@H]2CN(Cc3ccco3)C[C@@H]21 is ___
45.2

Fill in: INHIBITION of CN1CCN(C(=O)c2cn3ccsc3n2)[C@H]2CS(=O)(=O)C[C@H]21 is ___
38.5

Fill in: INHIBITION of Cc1nc[nH]c1CN(C)Cc1cnn(-c2ccc(F)cc2)c1 is ___
-5.22

Fill in: INHIBITION of CC(C)N1CCOC(c2cc(CCO)[nH]n2)C1 (configuration not stated) is ___
29.21

Fill in: INHIBITION of Cc1cnc(CCNC(Cc2ccncc2)C(F)(F)F)s1 (configuration not stated) is ___
11.7

Fill in: INHIBITION of O=C(c1ccccc1F)N1CCN(CCCn2cncn2)CC1 is ___
32.3

Fill in: INHIBITION of CC(CC#N)N(C)Cc1ccccc1Cl (configuration not stated) is ___
38.5

Fill in: INHIBITION of Cc1nc(C)c(CCNC(Cc2ccncc2)C(F)(F)F)s1 (configuration not stated) is ___
48.5
